Tested on: HOP-62 NSCLC
Procedure summary: NCI tumour cell line growth inhibition, 48 h
Exercise: for every item that follows, state its recorded TGI.

Worked examples, 2 compounds total:
- Compound: "Cc1cc(C)nc(NS(=O)(=O)c2ccc(NC(=O)c3ccc(Cl)c4c(Nc5ccc(S(=O)(=O)Nc6nc(C)cc(C)n6)cc5)c5ccccc5nc34)cc2)n1"
  TGI: "> 100 µM"
- Compound: "NC(=O)c1sc(-n2cnc3ccccc32)cc1OCc1ccccc1Br"
  TGI: "> 25 µM"

Return reported TGI values for all items listed beneath this line.
1. CC(C)CCCCCCCCCCCCC(=O)NCC(=O)NC1C(C)OC(Nc2ncnc3c2ncn3C)C(O)C1O (stereo not given)
2. NNC(=O)Nc1cccnc1
3. COC(=O)[C@H]1CO[C@@H](C(C)(C)C)N1C(=O)N1C=CC(=O)C[C@@H]1C

1: > 34.2 µM; 2: > 100 µM; 3: > 100 µM

---

Tested on: NCI-H226 lung
Procedure summary: NCI tumour cell line growth inhibition, 48 h
Exercise: for every item that follows, state its recorded TGI.

- Molecule: "COc1ccc(CNc2nc(NCc3ccc(OC)c(OC)c3)nc(NC3CCCCC3)n2)cc1"
  Recorded measurement: "> 100 µM"
- Molecule: "COC(=O)CC1CCN(C#N)CC1CC[N+](=O)[O-] (stereo not given)"
  Recorded measurement: "> 100 µM"
- Molecule: "COc1ccc(-c2nc3sccn3c2/C(N)=N/C(=N)N)cc1OC"
  Recorded measurement: "> 100 µM"
- Molecule: "C[n+]1c2ccccc2c(/C=N\\NS(=O)(=O)c2ccc(O)c(C(=O)O)c2)c2ccccc21"
  Recorded measurement: "> 100 µM"
- Molecule: "COc1cc([C@@H]2c3cc4c(cc3[C@@H](Nc3ccc([N+](=O)[O-])cc3C(=O)c3ccccc3)[C@H]3COC(=O)[C@H]23)OCO4)cc(OC)c1OC"
  Recorded measurement: "> 100 µM"
- Molecule: "Cc1cccc(/C=N/NC(=S)Nc2ccccc2)n1"
  Recorded measurement: "> 25 µM"
- Molecule: "CC1=C(C(=O)NCc2ccccc2)C(/C=C/c2ccccc2)C(C(=O)NCc2ccccc2)=C(C)N1"
  Recorded measurement: "> 100 µM"
- Molecule: "Cc1cccc2c(=O)cc(-c3ccccc3)[nH]c12"
  Recorded measurement: "> 100 µM"
- Molecule: "O=C1CC(c2ccc3c(c2)OCO3)Nc2ccccc21 (stereo not given)"
  Recorded measurement: "> 88 µM"

Now turn to the next molecule.
Consider CCOC(=O)Nn1c(C)nnc1-c1ccccc1 . Its measured TGI is > 100 µM

---

System: HCT-15 colon
Procedure summary: NCI tumour cell line growth inhibition, 48 h
Measured endpoint: TGI

Worked examples, 3 molecules total:
- Molecule: "Cc1nc2ccccc2c(=O)n1-c1ccccc1I"
  TGI: "> 100 µM"
- Molecule: "COc1ccc(/C=C2\\CCC(C)C3=C2NC(=S)NC3c2ccc(OC)c(OC)c2)cc1OC (stereo unspecified)"
  TGI: "> 31.6 µM"
- Molecule: "C=C1C(=O)C23CC1CCC2C12CO[C@@H]4OCC(C)(CC[C@@H]1OC3=O)C42 (stereo partly specified)"
  TGI: "7.88 µM"

Return reported TGI values for all items listed beneath this line.
1. CC12CCC(O)CC1CCC1C2CCC2(C)C(C3=CC(=O)OC3)CCC12O (stereo unspecified)
2. Oc1ccc(-c2nc(-c3cccnc3)c(-c3ccc(F)cc3)[nH]2)cc1
3. O=C(O)CSc1ccc([N+](=O)[O-])cc1[N+](=O)[O-]
4. CC(N)Cc1ccc(C(=O)Cl)cc1 (stereo unspecified)
5. COC1(OC)CCC2C1C1CCC(OC)(OC)C21 (stereo unspecified)

["5.75 µM", "64.5 µM", "> 100 µM", "> 100 µM", "> 50 µM"]

Return reported TGI values for all items listed beneath this line.
1. Cc1ccc(C(=O)/C(=C/c2ccc([N+](=O)[O-])cc2)SCc2ccc(Cl)cc2)cc1
2. COC(=O)CC1CCN(C#N)CC1CC[N+](=O)[O-] (stereo unspecified)

1. 2.69 µM
2. > 100 µM

Consider Cc1cn(C2CC(n3cc(Cn4cc(I)c(=O)[nH]c4=O)nn3)C(CO)O2)c(=O)[nH]c1=O (stereo unspecified) . Its measured TGI is > 100 µM
